# Tested on: MDA-N
# Experiment: NCI tumour cell line growth inhibition, 48 h
Where a SMILES comes first, the peptide text is derived from it. [ ]: non-standard residue; d: D form. The star is where a group is joined. ξ: configuration not given here. NMeN = CN[C@@H](CC(N)=O)C(=O)O; NMeV = CN[C@H](C(=O)O)C(C)C; ξNMeV = CNC(C(=O)O)C(C)C; Boc = CC(C)(C)OC(=O)*; ξNMeA = CNC(C)C(=O)O
Measured property: TGI

QUERY: Item O=c1[nH]c(=S)[nH]n1C(=S)n1[nH]c(=S)[nH]c1=O has what recorded TGI?
RESULT: > 100 µM

QUERY: Need TGI of Fc1ccccc1-c1nn2c(C34CC5CC(CC(C5)C3)C4)nnc2s1 , thanks.
RESULT: > 100 µM

QUERY: Would you mind telling me what TGI value was observed for COC(=O)C(C)N(C)C(=O)[C@H](CC(N)=O)N(C)C(=O)[C@@H]1CCCN1C(=O)[C@H](C(C)C)N(C)C(=O)C(C(C)C)N(C)C(=O)[C@@H](NC(=O)OC(C)(C)C)C(C)C (some centres undefined) (Boc-V[ξNMeV][NMeV]P[NMeN][ξNMeA]-OMe) ?
RESULT: > 50 µM

QUERY: Consider the molecule shown here: N#CC(Nc1ccccc1)c1ccc(C(C#N)Nc2ccccc2)cc1 (centres undefined) What is its recorded TGI?
RESULT: > 100 µM
